Molecular target: HDAC6 ZnF-UBP binding domain (ZnF-UBP^WT peptide, HDAC6^1109-1215) (Homo sapiens, UniProt Q9UBN7)
Construct: methods b47 print 1190-1215, apparently a misprint), expressed in E. coli BL21 Star (DE3), HisTrap purified
Sequence (Q9UBN7 1109-1215): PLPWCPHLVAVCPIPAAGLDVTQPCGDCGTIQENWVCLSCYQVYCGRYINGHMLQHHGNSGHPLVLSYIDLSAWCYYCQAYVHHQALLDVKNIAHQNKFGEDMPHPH
Test: fluorescence polarization displacement of FITC-RLRGG
A collection of compounds and their measured IC50
Hi, when you answer, please include the unit after the number. Thanks!

- Cn1c(CCC(=O)O)nc2cc([N+](=O)[O-])ccc2c1=O: 2.3 µM
- COc1ccc2nc(CCC(=O)O)n(C)c(=O)c2c1: 2.1 µM
- Cc1ccc2nc(CCC(=O)O)n(C)c(=O)c2c1: 13.6 µM
- Cn1c(CCC(=O)O)nc2cc(Cl)ccc2c1=O: 1.9 µM
- Cn1c(CCC(=O)O)nc2ccccc2c1=O: 2.7 µM
- Cn1c(CCC(=O)O)nc2ccc(Cl)cc2c1=O: 1.9 µM

Next compound, please.
In: # get_value(readout='IC50', item= Cc1ccc2c(=O)n(C)c(CCC(=O)O)nc2c1 )
Out: 2.1 µM
